Below, each entry is listed alongside its reported GI50.
- Test system: 786-0
- test_description: NCI tumour cell line growth inhibition, 48 h
Active and inactive are the calls of the source. Cut-off read from the data, not from the text of the source: active = GI50 up to about 1.1 µM and inactive = higher. Peptide text beside a SMILES is read from it. * marks the point of attachment. Boc = CC(C)(C)OC(=O)*; OBn = c1ccc(CO*)cc1; Bn = c1ccc(C*)cc1

[[record]]
compound = "Cn1cc(NC(=O)c2cc(NC(=O)CCCCCCCCC(=O)Nc3cc(C(=O)Nc4cc(C(=O)NCCC(N)N)n(C)c4)n(C)c3)cn2C)cc1C(=O)NCCC(=N)N"
observation_type = "GI50"
result = "21.9 µM (inactive)"

[[record]]
compound = "CN(C)[C@@H]1C(O)=C(C(=O)NCNCCCC(=O)O)C(=O)[C@@]2(O)C(O)=C3C(=O)c4c(O)cccc4[C@@](C)(O)[C@H]3C[C@@H]12"
observation_type = "GI50"
result = "> 100 µM (inactive)"

[[record]]
compound = "O=C1c2ccccc2C(=O)c2sc(Nc3cc(Cl)ccc3Cl)nc21"
observation_type = "GI50"
result = "3.61 µM (inactive)"


Query string: Return GI50 for the following compound: C/C(=N/NC(=O)c1ccccc1Nc1ccccc1C(=O)N/N=C(\C)c1ccc(C)cc1)c1ccc(C)cc1
Result string: > 100 µM (inactive)

Query string: # return recorded GI50 for entry CC1(C)CC(=O)C2=C(C1)C(c1ccccc1Cl)C1C(=O)CC(C)(C)CC1(O)O2 (stereo not drawn)
Result string: > 100 µM (inactive)

Query string: Please give the documented GI50 of C=CCOc1ccccc1C1(O)c2ccccc2C2=NCCCN21 (stereo not drawn)
Result string: 47.3 µM (inactive)

Query string: Given CCOc1ccc2nc3nc(O)nc(C)c3c(NC(C)(CO)CO)c2c1 , respond with its GI50.
Result string: > 100 µM (inactive)

Query string: Input CC(C)CC(NC(=O)C(CCC(=O)OCc1ccccc1)NC(=O)OC(C)(C)C)C(=O)NC(COCc1ccccc1)C(=O)NC(Cc1ccccc1)C(=O)O (stereo not drawn) (Boc-E(OBn)LS(Bn)F-OH; configuration not given here) , output reported GI50.
Result string: > 100 µM (inactive)

----------
Measured GI50 of individual entries
- Test system: MOLT-4
- test_description: NCI tumour cell line growth inhibition, 48 h
Calls of active or inactive are those of the source. Rule as the data show it: active = GI50 up to about 1.1 µM and inactive = higher.

Record excerpt, results attached:
[[record]]
smiles_notation = "Cc1cnc2nc(-c3sccc3C)cc(O)c2c1"
result = "6.18 µM (inactive)"

[[record]]
smiles_notation = "CC1(C)Cc2c(c3ccccc3c3nc4c(nc23)c2c(c3ccccc34)OC(C)(C)C2)O1"
result = "> 100 µM (inactive)"

[[record]]
smiles_notation = "CCC(=O)N/N=C(\\C=C\\c1cccc(O)c1)c1sc(Nc2ccc(C)cc2[N+](=O)[O-])nc1C"
result = "> 100 µM (inactive)"

[[record]]
smiles_notation = "CCCCCCCCCCCCC(CCCCCCCCCCCC)OP(=O)(O)O"
result = "59.2 µM (inactive)"

[[record]]
smiles_notation = "COCCN(CCOC)C(=O)COc1c2cc(C(C)(C)C)cc1Cc1cc(C(C)(C)C)cc(c1OCC(=O)N(CCOC)CCOC)Cc1cc(C(C)(C)C)cc(c1OCC(=O)N(CCOC)CCOC)Cc1cc(C(C)(C)C)cc(c1OCC(=O)N(CCOC)CCOC)Cc1cc(C(C)(C)C)cc(c1OCC(=O)N(CCOC)CCOC)C2"
result = "1.74 µM (inactive)"

[[record]]
smiles_notation = "C[C@]12CC[C@H]3[C@@H](CCC4=C[C@@H](N5CCCC5)CC[C@@]43C)[C@@H]1C/C(=C\\c1ccncc1)[C@@H]2O"
result = "7.73 µM (inactive)"


# evaluate next
Query string: # return recorded GI50 for entry CCOC(=O)NN(C(=O)OCC)C(C(=O)c1ccc(Cl)cc1)=C1NCCN1
Result string: > 100 µM (inactive)

----------
- Test system: M14
- test_description: NCI tumour cell line growth inhibition, 48 h
Active and inactive are the calls of the source. Cut-off read from the data, not from the text of the source: active = GI50 up to about 1.1 µM and inactive = higher.
Allowed answers: True for active, False for inactive

[[record]]
molecule = "O=C(O)C(C(=O)O)P(=S)(S)c1ccccc1 (stereo unspecified)"
qualitative_label = "False"

[[record]]
molecule = "CCOC(=O)C1=C(Nc2ccc(Br)cc2)OC/C1=N\\NC(=O)c1ccccc1O"
qualitative_label = "False"


Query string: Assay result, entry [O-][S+](Nc1ccccc1)c1ccc(N2CCOCC2)cc1 (stereo unspecified) — outcome?
Result string: False

Query string: What did this assay record as the result for Clc1ccc(/N=C/C=C/Nc2ccc(Cl)cn2)nc1 ?
Result string: False

----------
- Test system: K562
- test_description: NCI tumour cell line growth inhibition, 48 h
The source made the active and inactive calls. No stated cut-off is given here; in the data, active = GI50 up to about 1.1 µM and inactive = higher.
observation_type: GI50

Here's what some known entries look like.
[[record]]
compound = "CCOC(=O)CC1(C(=O)OCC)c2[nH]c3ccccc3c2CCN1Cc1ccccc1 (stereo not given)"
result = "16.9 µM (inactive)"

[[record]]
compound = "c1cn[nH]c1"
result = "> 10 µM (inactive)"

[[record]]
compound = "C[C@]12CC[C@H]3[C@@H](CCC4=C[C@@H](N5CCCC5)CC[C@@]43C)[C@@H]1C/C(=C\\c1ccncc1)[C@@H]2O"
result = "3.24 µM (inactive)"

[[record]]
compound = "COC(=O)c1ccccc1OCc1cc(=O)oc2ccc(C)cc12"
result = "> 100 µM (inactive)"


# input for lookup
Query string: Report GI50 for Cc1cc(S(=O)(=O)Nc2nc(N)nc(N3N=CCC3C)n2)c(S)cc1Cl (stereo not given)
Result string: > 10 µM (inactive)

----------
- System: T47D
- test_description: NCI tumour cell line growth inhibition, 48 h
Calls of active or inactive are those of the source. Cut-off read from the data, not from the text of the source: active = GI50 up to about 1.1 µM and inactive = higher.
Listed molecules paired with reported GI50

Query string: Return GI50 (reported value) for this molecule: O=C1c2ccccc2C(=O)c2sc(Nc3cc(Cl)ccc3Cl)nc21
Result string: 3.99 µM (inactive)

----------
- Tested on: M14
- test_description: NCI tumour cell line growth inhibition, 48 h
The source made the active and inactive calls. No stated cut-off is given here; in the data, active = GI50 up to about 1.1 µM and inactive = higher.
GI50 for assorted molecules

[[record]]
molecule = "CCOc1ccc(NC2=NC(=O)C(CC(=O)Nc3ccccc3[N+](=O)[O-])S2)cc1 (stereo unspecified)"
target_of_assay = "M14"
result = "> 100 µM (inactive)"

[[record]]
molecule = "COc1ccc(C(SC2C(O)C(CO)OC2n2ccc(N)nc2=O)(c2ccccc2)c2ccc(OC)cc2)cc1 (stereo unspecified)"
target_of_assay = "M14"
result = "12.7 µM (inactive)"

[[record]]
molecule = "OCC(O)COCn1nncc1Cn1ncc2c(SCc3ccccc3)ncnc21 (stereo unspecified)"
target_of_assay = "M14"
result = "> 100 µM (inactive)"

[[record]]
molecule = "Cc1cc(-c2nc3ccc(F)cc3s2)ccc1NC(=O)[C@H](C)N"
target_of_assay = "M14"
result = "1.95 µM (inactive)"

[[record]]
molecule = "CC1=NN2C(=O)CC(=O)N=C2S1"
target_of_assay = "M14"
result = "> 100 µM (inactive)"


Query string: Recall the reported GI50 of O=c1cnn2c(n1)sc1ccc3ccccc3c12 on M14 and write it down.
Result string: > 100 µM (inactive)

Query string: Please look at CCC(=O)N/N=C(\C=C\c1cccc(O)c1)c1sc(Nc2ccc(C)cc2[N+](=O)[O-])nc1C and tell me its recorded GI50 on M14.
Result string: > 100 µM (inactive)

Query string: Check M14 data and give GI50 for COC(=O)C(C(=O)C(=O)Nc1nnc(S)[nH]1)c1csc(N)n1 (stereo unspecified) .
Result string: > 100 µM (inactive)

Query string: Give GI50; test system M14; molecule CCN(CC)CCN(C(=O)c1ccc(F)cc1)c1ccccc1N
Result string: > 10 µM (inactive)

Query string: Look up and report GI50, with M14 as system, for CC(C)=CC(=O)c1[nH]c2ccccc2c1CC(=O)NCCc1cncn1C
Result string: 72.3 µM (inactive)

Query string: Fetch value of GI50 on M14 for CC(=O)NC(C)(C)C1CCC(C)CC1 (stereo unspecified) .
Result string: > 100 µM (inactive)

----------
- System: EKVX
- test_description: NCI tumour cell line growth inhibition, 48 h
The source made the active and inactive calls. Cut-off read from the data, not from the text of the source: active = GI50 up to about 1.1 µM and inactive = higher.
# key: entry, value: GI50

[[record]]
compound = "CCCCC(=O)c1c(O)ccc2c(C)cc(=O)oc12"
observation_type = "GI50"
result = "89.1 µM (inactive)"


Query string: Supply reported GI50 belonging to this compound: C[C@]12CC[C@@H]3c4cc(OCC(F)(F)F)c(O)cc4C(=O)C[C@H]3[C@@H]1CC[C@@H]2O
Result string: 14.7 µM (inactive)

Query string: Specify reported GI50 for the compound shown: C#CCn1c(=O)c(C#N)c(O)c2cc3ccccc3nc21
Result string: > 100 µM (inactive)

Query string: Identify GI50 associated with the compound CN1CCN2CCN(C)CCN(CC1)CC2
Result string: > 100 µM (inactive)
